Source: patent US20230061736A1

TARGET OR TEST SYSTEM: human GPR119 (hGPR119) (Homo sapiens, UniProt Q8TDV5)
Construct: expressed in transfected cells
Sequence (Q8TDV5 1-335): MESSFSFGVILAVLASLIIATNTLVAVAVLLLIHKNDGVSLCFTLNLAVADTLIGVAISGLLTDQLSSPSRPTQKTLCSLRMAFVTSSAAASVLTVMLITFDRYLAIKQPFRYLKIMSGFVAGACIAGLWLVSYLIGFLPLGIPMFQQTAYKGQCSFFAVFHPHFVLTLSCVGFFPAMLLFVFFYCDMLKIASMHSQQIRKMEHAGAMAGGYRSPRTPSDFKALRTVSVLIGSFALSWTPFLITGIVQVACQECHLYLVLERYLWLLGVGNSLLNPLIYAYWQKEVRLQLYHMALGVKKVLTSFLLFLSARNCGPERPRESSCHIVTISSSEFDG
METHOD: cAMP accumulation assay (cAMP Gs dynamic HTRF kit)
Format: cell-based
TEST CONDITIONS: 1 h; CHO-K1 cells stably expressing hGPR119; % activity normalized to Max/Min controls; 4-parameter fit
TEST READOUT: Emax

Query: For the compound shown here, O=C(CC1CN(C(=O)Cc2ccc(OCCCC3CCN(c4ncc(Cl)cn4)CC3)cc2F)C1)NC[C@H](O)[C@@H](O)[C@H](O)[C@H](O)CO (racemic) , give the reported Emax.
Result: ≥ 130%

Query: For the compound shown here, O=C(Cc1ccc(OCCCC2CCN(c3ncc(Cl)cn3)CC2)cc1F)N1CC(CN[C@@H]2C[C@H](O)[C@@H](O)[C@H]2O)C1 (racemic) , give the reported Emax.
Result: ≥ 130%

Query: For the compound shown here, `COCc1cnc(N2CCC(CCCOc3cc(F)c(CC(=O)N4CC[C@H](C(=O)NC[C@H](O)[C@@H](O)[C@H](O)[C@H](O)CO)C4)c(F)c3)CC2)nc1` , give the reported Emax.
Result: 100 to 130%

Query: For the compound shown here, `O=C(Cc1ccc(OCCCC2CCN(c3ncc(Cl)cn3)CC2)cc1F)N1CC(CCNC(CO)(CO)CO)C1` , give the reported Emax.
Result: 100 to 130%

---
Query: For the compound shown here, `CCc1cnc(N2CCC(CCOCc3ccc(CC(=O)N4CC(CNC[C@H](O)[C@@H](O)[C@H](O)[C@H](O)CO)C4)cc3F)CC2)nc1` , give the reported Emax.
Result: 50 to 100%

Query: For the compound shown here, `CCc1cnc(N2CCC(CCCOc3ccc(CC(=O)N4CC(CNCC(O)(CO)CO)C4)c(F)c3)CC2)nc1` , give the reported Emax.
Result: ≥ 130%
